Taken from ChEMBL document CHEMBL3585321.

system: Staphylococcus aureus; test: Antibacterial activity against methicillin-resistant Staphylococcus aureus GRE2372 assessed as inhibition of bacterial growth; assay type: functional, organism-based
Calls of active or inactive are those of the source. The calls are words filed in the database; no cut-off is given here.

SUBSTANCE_SMILES	TESTED_ON	growth inhibition (GI)
Cc1onc(-c2ccccc2)c1C(=O)N[C@@H]1C(=O)N2[C@@H]1SC(C)(C)[C@@H]2C(=O)O	Staphylococcus aureus	inactive
CC[C@H]1OC(=O)[C@H](C)[C@@H](O[C@H]2C[C@@](C)(OC)[C@@H](O)[C@H](C)O2)[C@H](C)[C@@H](O[C@@H]2O[C@H](C)C[C@H](N(C)C)[C@H]2O)[C@](C)(O)C[C@@H](C)C(=O)[C@H](C)[C@@H](O)[C@]1(C)O	Staphylococcus aureus	inactive

* * *

The entries below are paired with their reported pIC50.
tested on: Escherichia coli; experiment: Antibacterial activity against wild type Escherichia coli K-12 assessed as inhibition of bacterial growth; format: functional, organism-based
pIC50: −log10 of the molar value.

These solved cases illustrate the format of a correct answer.
SUBSTANCE_SMILES	TESTED_ON	EXPERIMENTAL_READOUT	RESULT
O=C(CCNC(=O)c1nc[nH]n1)N[C@H](CO)[C@H](O)c1ccc([N+](=O)[O-])cc1	Escherichia coli	pIC50	< 3.70
NCCCCNC(=O)c1ccccc1C(=O)N[C@H](CO)[C@H](O)c1ccc([N+](=O)[O-])cc1	Escherichia coli	pIC50	< 3.70

// sample O=C(N[C@H](CO)[C@H](O)c1ccc([N+](=O)[O-])cc1)c1nc[nH]n1 , its pIC50 was < 3.52
